B1: CASP6 (parent)
chain: TCADRDNLTRRFSDLGFEVKCFND

Variants of: B1
test-protocol: protein stability index of a GFP-peptide fusion (GPS, HEK-293T) (PSI 1-6); higher = more stable;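 also: lentivirally expressed fusions sorted by FACS into six bins by GFP to DsRed ratio, PSI derived from sequencing read proportions per bin multiplied by bin number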
condition-set: c terminus: a fixed tail appended
Classify by measured protein stability index: satisfied if it is equal to or exceeds 4, not satisfied if it is smaller.

Determine whether measured protein stability index meets or exceeds 4 for TCAGRDNLTRRFSDLGFEVKCFND [D4G]
not satisfied

Determine whether measured protein stability index meets or exceeds 4 for TCADRDNKTRRFSDLGFEVKCFND [L8K]
not satisfied

Determine whether measured protein stability index meets or exceeds 4 for TCADRDNLTRRFSDLGFEVVCFND [K20V]
not satisfied

Determine whether measured protein stability index meets or exceeds 4 for TCADRDNLTRRFFDLGFEVKCFND [S13F]
not satisfied

Determine whether measured protein stability index meets or exceeds 4 for TCADRDNLTRRDSDLGFEVKCFND [F12D]
satisfied

Determine whether measured protein stability index meets or exceeds 4 for TCADRDNLTRRFSDLGFEVKCFAD [N23A]
not satisfied

Determine whether measured protein stability index meets or exceeds 4 for TCADGDNLTRRFSDLGFEVKCFND [R5G]
not satisfied

Determine whether measured protein stability index meets or exceeds 4 for TCADRDNLTRRFSDLGFEVKCPND [F22P]
satisfied

Determine whether measured protein stability index meets or exceeds 4 for TCADRDNLTRRFSDLGFAVKCFND [E18A]
not satisfied

Determine whether measured protein stability index meets or exceeds 4 for TCADRDNLARRFSDLGFEVKCFND [T9A]
not satisfied

Determine whether measured protein stability index meets or exceeds 4 for TCADRDNLTRRFSQLGFEVKCFND [D14Q]
not satisfied

Determine whether measured protein stability index meets or exceeds 4 for TCADRDNLTSRFSDLGFEVKCFND [R10S]
not satisfied

Determine whether measured protein stability index meets or exceeds 4 for TCADRDNLTRRFSDLGHEVKCFND [F17H]
not satisfied

Determine whether measured protein stability index meets or exceeds 4 for TCADRDNLTRRFSDFGFEVKCFND [L15F]
not satisfied

Determine whether measured protein stability index meets or exceeds 4 for TEADRDNLTRRFSDLGFEVKCFND [C2E]
satisfied
